# Tested on: TOV-21G OVCA cell line
# MEASUREMENT_NOTES: CellTiter-Blue cell viability assay, TOV-21G
# Assay type: cell-based
# REPORTED_CONDITIONS: Homo sapiens, TOV21G; TOV-21G cells, 72 hours, growth/viability
QUANTITY_KIND: IC50 (nM)

molecule="Nc1ccn([C@@H]2O[C@H](CO)[C@@H](O)C2(F)F)c(=O)n1 [Gemcitabine, 2′,2′-difluorodeoxycytidine]" target_system="TOV-21G OVCA cell line" reported_measurement=764

###

# Test system: A2780S OVCA cell line
# MEASUREMENT_NOTES: CellTiter-Blue cell viability assay, A2780S
# Type: cell-based
# REPORTED_CONDITIONS: Homo sapiens; A2780S cells, 72 hours, growth/viability
QUANTITY_KIND: IC50 (µM)

compound="Nc1ccn([C@@H]2O[C@H](CO)[C@@H](O)C2(F)F)c(=O)n1 [Gemcitabine, 2′,2′-difluorodeoxycytidine]" uom=µM reported_measurement=0.0518

###

# Test system: M41 OVCA cell line
# MEASUREMENT_NOTES: CellTiter-Blue cell viability assay, M41
# Format: cell-based
# REPORTED_CONDITIONS: Homo sapiens; M41 cells, 72 hours, growth/viability
QUANTITY_KIND: IC50 (µM)

compound="Nc1ccn([C@@H]2O[C@H](CO)[C@@H](O)C2(F)F)c(=O)n1 [Gemcitabine, 2′,2′-difluorodeoxycytidine]" reported_measurement=0.0395

###

# Tested on: OVCAR8 OVCA cell line
# MEASUREMENT_NOTES: CellTiter-Blue cell viability assay, OVCAR8
# Format: cell-based
# REPORTED_CONDITIONS: Homo sapiens, OVCAR-8; OVCAR8 cells, 72 hours, growth/viability
QUANTITY_KIND: IC50 (nM)

given_smiles=Nc1ccn([C@@H]2O[C@H](CO)[C@@H](O)C2(F)F)c(=O)n1 reported_measurement=273

###

# Tested on: BG1 OVCA cell line
# MEASUREMENT_NOTES: CellTiter-Blue cell viability assay, BG1
# Type: cell-based
# REPORTED_CONDITIONS: Homo sapiens, BG-1; BG1 cells, 72 hours, growth/viability
pIC50: −log10 of the molar value.
QUANTITY_KIND: pIC50

given_smiles=Nc1ccn([C@@H]2O[C@H](CO)[C@@H](O)C2(F)F)c(=O)n1 target_system="BG1 OVCA cell line" reported_measurement=4.52

###

# Test system: SK-OV-6 OVCA cell line
# MEASUREMENT_NOTES: CellTiter-Blue cell viability assay, SK-OV-6
# Format: cell-based
# REPORTED_CONDITIONS: Homo sapiens; SK-OV-6 cells, 72 hours, growth/viability
pIC50: −log10 of the molar value.
QUANTITY_KIND: pIC50

given_smiles=Nc1ccn([C@@H]2O[C@H](CO)[C@@H](O)C2(F)F)c(=O)n1 quantity_kind=pIC50 reported_measurement=5.46
